- systemUnderTest: T1, human CD20 antigen (human, UniProt P11836 1-297)
- T1 construct: whole, on cells; also called CD20/CHO cells; CD20 on Raji cells
- T1 sequence (looked up): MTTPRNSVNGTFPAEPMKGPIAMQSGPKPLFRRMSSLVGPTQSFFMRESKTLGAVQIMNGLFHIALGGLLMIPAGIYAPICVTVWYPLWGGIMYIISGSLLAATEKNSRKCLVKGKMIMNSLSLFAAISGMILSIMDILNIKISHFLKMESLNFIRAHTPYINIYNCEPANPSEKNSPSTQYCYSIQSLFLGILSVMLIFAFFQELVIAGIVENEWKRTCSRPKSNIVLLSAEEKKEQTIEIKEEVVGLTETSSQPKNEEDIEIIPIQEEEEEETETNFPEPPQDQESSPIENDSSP
- assayExplanation: CD20/CHO cell-ELISA, antibody at 10 ng/ml
Below, each entry is listed alongside its reported A492.
Quick note: give the figure in A492, leave out the unit.

Measured A492 of chimeric anti-CD20 monoclonal antibody c1K0924 (antibody, V domains shown, Murine variable regions fused to human immunoglobulin H chain and L chain (kappa) constant regions of vector pNOW-Ab) VH: QVQLQQPGAELVKPGASVKMSCKASGYTFTSYNIHWVKQTPGQGLEWIGAIYPGNGDTSYNQKFKGKATLTSDKSSSTAYMQLSSLTSEDSAVYYCARMSTMITGFDYWGQGTTLTVSS VL: QIVLSQSPAILSASPGEKVTMTCRASSSVSYMHWYQQRPGSSPKPWIYATSNLASGVPARFSGSGSGTSYYFTISRVEAEDAATYYCQQWNSNPPTHGGGTKLEIK : 0.391

Recorded A492 (binder chimeric anti-CD20 monoclonal antibody c1K1712 (antibody, V domains shown, Murine variable regions fused to human immunoglobulin H chain and L chain (kappa) constant regions of vector pNOW-Ab) VH: QVQLQQPGAELVKPGASVKMSCKASGFTFTSYNLHWVKQTPGQGLEWIGAIYPGSGDTSYNQQFKGKATLTADKSSNTAYMQLNSLTSEDSAVYCCARSAMISTGNWYFDYWGQGTTLTVSS VL: QIVLSQSPAILSASPGEKVTMTCRASSSVSYMDWYQQKPGSSPKPWIYATSNLASGVPARFSGSGSGTSYSLTISRVEAEDTATYYCQQWTFNPPTFGSGTKLEIK ): 0.793
